- assay-protocol: Gradient chromatographic hydrophobicity index of the compound at pH 3.7 by HPLC analysis
- Type: ADME
readout: CHI

Reference set (5 entries):
>  <compound>
CCCCOP(=O)(CCN(CCCN)CCCN)OCCCCCCCCOP(=O)(CCN(CCCN)CCCN)OCCCC.Cl.Cl.Cl.Cl.Cl.Cl (configuration not stated)

>  <CHI>
11

$$$$
>  <compound>
CC(C)COP(=O)(CCN(CCCN)CCCN)OCCCCCCCCOP(=O)(CCN(CCCN)CCCN)OCC(C)C.Cl.Cl.Cl.Cl.Cl.Cl (configuration not stated)

>  <CHI>
25.2

$$$$
>  <compound>
Cl.Cl.Cl.Cl.Cl.Cl.NCCCN(CCCN)CCP(=O)(OCCCCCCOP(=O)(CCN(CCCN)CCCN)OCCCC1CCCCC1)OCCCC1CCCCC1 (configuration not stated)

>  <CHI>
36.4

$$$$
>  <compound>
Cl.Cl.Cl.Cl.Cl.Cl.NCCCN(CCCN)CCP(=O)(OCCCCCCCCCCOP(=O)(CCN(CCCN)CCCN)OCCc1ccccc1)OCCc1ccccc1 (configuration not stated)

>  <CHI>
31.1

$$$$
>  <compound>
CC(C)COP(=O)(CCN(CCCN)CCCN)OCCCCCCCCCCCCCCOP(=O)(CCN(CCCN)CCCN)OCC(C)C.Cl.Cl.Cl.Cl.Cl.Cl (configuration not stated)

>  <CHI>
27.3

$$$$

// recorded CHI for CCCCC/C=C\CCOP(=O)(CCN(CCCN)CCCN)OCCCCCCOP(=O)(CCN(CCCN)CCCN)OCC/C=C\CCCCC.Cl.Cl.Cl.Cl.Cl.Cl (configuration not stated) : 37.5

// recorded CHI for CCCCCCCCOP(=O)(CCN(CCCN)CCCN)OCCCCCCCCCCCCOP(=O)(CCN(CCCN)CCCN)OCCCCCCCC.Cl.Cl.Cl.Cl.Cl.Cl (configuration not stated) : 432

----------
- assay-protocol: Cytotoxicity against human HepG2 cells assessed as reduction in cell viability
- Assay type: toxicity, cell-based
Mark YES only when CC50 stays strictly below 60 µM. Values equal to the cut-off are NO.

Query :: CC50 strictly < 60 µM for this compound? Cl.Cl.Cl.Cl.Cl.Cl.NCCCN(CCCN)CCP(=O)(OCCCCCOP(=O)(CCN(CCCN)CCCN)OCC12CC3CC(CC(C3)C1)C2)OCC12CC3CC(CC(C3)C1)C2 (stereo unspecified)
Result :: NO

Query :: CC50 strictly < 60 µM for this compound? CCCC/C=C\CCOP(=O)(CCN(CCCN)CCCN)OCCCCCCOP(=O)(CCN(CCCN)CCCN)OCC/C=C\CCCC.Cl.Cl.Cl.Cl.Cl.Cl (stereo unspecified)
Result :: NO

Query :: CC50 strictly < 60 µM for this compound? CCCCCCCCOP(=O)(CCN(CCCN)CCCN)OCCCCOP(=O)(CCN(CCCN)CCCN)OCCCCCCCC.Cl.Cl.Cl.Cl.Cl.Cl (stereo unspecified)
Result :: NO

Query :: CC50 strictly < 60 µM for this compound? CCCCCCCCOP(=O)(CCN(CCN)CCN)OCCCCCCOP(=O)(CCN(CCN)CCN)OCCCCCCCC.Cl.Cl.Cl.Cl.Cl.Cl (stereo unspecified)
Result :: NO

Query :: CC50 strictly < 60 µM for this compound? CCCCC/C=C\CCOP(=O)(CCN(CCCN)CCCN)OCCCCCOP(=O)(CCN(CCCN)CCCN)OCC/C=C\CCCCC.Cl.Cl.Cl.Cl.Cl.Cl (stereo unspecified)
Result :: NO

Query :: CC50 strictly < 60 µM for this compound? CCC/C=C\CCOP(=O)(CCN(CCCN)CCCN)OCCCOP(=O)(CCN(CCCN)CCCN)OCC/C=C\CCC.Cl.Cl.Cl.Cl.Cl.Cl (stereo unspecified)
Result :: NO

Query :: CC50 strictly < 60 µM for this compound? CCC/C=C\CCOP(=O)(CCN(CCCN)CCCN)OCCCCCCOP(=O)(CCN(CCCN)CCCN)OCC/C=C\CCC.Cl.Cl.Cl.Cl.Cl.Cl (stereo unspecified)
Result :: NO

Query :: CC50 strictly < 60 µM for this compound? CCCCCCOP(=O)(CCN(CCCN)CCCN)OCCCCCCCCOP(=O)(CCN(CCCN)CCCN)OCCCCCC.Cl.Cl.Cl.Cl.Cl.Cl (stereo unspecified)
Result :: NO

Query :: CC50 strictly < 60 µM for this compound? CCCCCCOP(=O)(CCN(CCCN)CCCN)OCCCCCCCCCCOP(=O)(CCN(CCCN)CCCN)OCCCCCC.Cl.Cl.Cl.Cl.Cl.Cl (stereo unspecified)
Result :: YES

Query :: CC50 strictly < 60 µM for this compound? CCCCC/C=C\CCOP(=O)(CCN(CCCN)CCCN)OCCCCCCOP(=O)(CCN(CCCN)CCCN)OCC/C=C\CCCCC.Cl.Cl.Cl.Cl.Cl.Cl (stereo unspecified)
Result :: YES

Query :: CC50 strictly < 60 µM for this compound? CCCCCCCOP(=O)(CCN(CCCN)CCCN)OCCCCCCCOP(=O)(CCN(CCCN)CCCN)OCCCCCCC.Cl.Cl.Cl.Cl.Cl.Cl (stereo unspecified)
Result :: NO

Query :: CC50 strictly < 60 µM for this compound? CC(C)COP(=O)(CCN(CCCN)CCCN)OCCCCCCCCCCCCOP(=O)(CCN(CCCN)CCCN)OCC(C)C.Cl.Cl.Cl.Cl.Cl.Cl (stereo unspecified)
Result :: YES

Query :: CC50 strictly < 60 µM for this compound? CCCCCCCCOP(=O)(CCN(CCCN)CCCN)OCCCCCCOP(=O)(CCN(CCCN)CCCN)OCCCCCCCC.Cl.Cl.Cl.Cl.Cl.Cl (stereo unspecified)
Result :: YES

Query :: CC50 strictly < 60 µM for this compound? Cl.Cl.Cl.Cl.Cl.Cl.NCCCN(CCCN)CCP(=O)(OCCCOP(=O)(CCN(CCCN)CCCN)OCC12CC3CC(CC(C3)C1)C2)OCC12CC3CC(CC(C3)C1)C2 (stereo unspecified)
Result :: NO

Query :: CC50 strictly < 60 µM for this compound? Cl.Cl.Cl.Cl.Cl.Cl.NCCCN(CCCN)CCP(=O)(OCCCOP(=O)(CCN(CCCN)CCCN)OCCC12CC3CC(CC(C3)C1)C2)OCCC12CC3CC(CC(C3)C1)C2 (stereo unspecified)
Result :: NO

Query :: CC50 strictly < 60 µM for this compound? CCCCOP(=O)(CCN(CCN)CCN)OCCCCCCCCCCOP(=O)(CCN(CCN)CCN)OCCCC.Cl.Cl.Cl.Cl.Cl.Cl (stereo unspecified)
Result :: NO

----------
- Test system: Staphylococcus epidermidis
- assay-protocol: Antibacterial activity against Staphylococcus epidermidis CCM 7221 assessed as inhibition of bacterial growth incubated for 24 hrs by microdilution assay
- Assay type: functional
readout: MIC (µg/mL)
Value expressed in µg/mL; do not type the unit.

>  <compound>
CCCCOP(=O)(CCN(CCCN)CCCN)OCCCCCCCCCCOP(=O)(CCN(CCCN)CCCN)OCCCC.Cl.Cl.Cl.Cl.Cl.Cl (stereo unspecified)

>  <MIC (µg/mL)>
4

$$$$

// recorded MIC for CCCC/C=C\CCOP(=O)(CCN(CCCNC(=N)N)CCCNC(=N)N)OCCCCCCOP(=O)(CCN(CCCNC(=N)N)CCCNC(=N)N)OCC/C=C\CCCC.Cl.Cl.Cl.Cl.Cl.Cl (stereo unspecified) : 1

----------
- assay-protocol: Gradient chromatographic hydrophobicity index of the compound at pH 3.7 by HPLC analysis
- Type: ADME
molecules and their reported CHI
When you answer, write just the number.

>  <molecule>
Cl.Cl.Cl.Cl.Cl.Cl.NCCCN(CCCN)CCP(=O)(OCCCCCCCCOP(=O)(CCN(CCCN)CCCN)OCCc1ccccc1)OCCc1ccccc1 (centres undefined)

>  <CHI>
27.3

$$$$
>  <molecule>
CCCCCCOP(=O)(CCN(CCCN)CCCN)OCCCCCCOP(=O)(CCN(CCCN)CCCN)OCCCCCC.Cl.Cl.Cl.Cl.Cl.Cl (centres undefined)

>  <CHI>
28.7

$$$$
>  <molecule>
CCC/C=C\CCOP(=O)(CCN(CCCN)CCCN)OCCCCCCCOP(=O)(CCN(CCCN)CCCN)OCC/C=C\CCC.Cl.Cl.Cl.Cl.Cl.Cl (centres undefined)

>  <CHI>
31.3

$$$$

// recorded CHI for CCC/C=C\CCOP(=O)(CCN(CCN)CCN)OCCCCCCCOP(=O)(CCN(CCN)CCN)OCC/C=C\CCC.Cl.Cl.Cl.Cl.Cl.Cl (centres undefined) : 37.4

----------
- System: Staphylococcus aureus
- assay-protocol: Antibacterial activity against […] Staphylococcus aureus 4460/A assessed as reduction in microbial growth incubated for 24 hrs by microdilution assay
- Assay type: functional
readout: MIC
Don't forget the unit after the value.

Reference set (3 entries):
>  <molecule>
O=C(N[C@H](CO)[C@H](O)c1ccc([N+](=O)[O-])cc1)C(Cl)Cl

>  <MIC>
2 µg/mL

$$$$
>  <molecule>
CCCCCCCCOP(=O)(CCN(CCCN)CCCN)OCCCCCCOP(=O)(CCN(CCCN)CCCN)OCCCCCCCC.Cl.Cl.Cl.Cl.Cl.Cl (centres undefined)

>  <MIC>
1 µg/mL

$$$$
>  <molecule>
CC[C@H]1OC(=O)[C@H](C)[C@@H](O[C@H]2C[C@@](C)(OC)[C@@H](O)[C@H](C)O2)[C@H](C)[C@@H](O[C@@H]2O[C@H](C)C[C@H](N(C)C)[C@H]2O)[C@](C)(O)C[C@@H](C)C(=O)[C@H](C)[C@@H](O)[C@]1(C)O

>  <MIC>
0.25 µg/mL

$$$$

Now look at this one.
// recorded MIC for CCCCCCCCOP(=O)(CCN(CCCN)CCCN)OCCCCOP(=O)(CCN(CCCN)CCCN)OCCCCCCCC.Cl.Cl.Cl.Cl.Cl.Cl (centres undefined) : 1 µg/mL
